Kindly supply the reported growth values for the records listed here.
- System: SR leukemia
- assay.details: NCI-60 one-dose screen, 48 h (100 = growth as untreated, 0 = no growth, -100 = all killed)
- experimental.parameters: 10 µM
Compounds without any hit were thinned out: in the full panel of roughly 83,000, 20% have a hit.
One number for each entry, in %.

Consider the reported growth for these compounds:
1. Cc1cc(O)ccc1C1=NN(c2ccc(S(C)(=O)=O)cc2)C(=O)CC1 | 12.3
2. C[C@]12CC[C@@H]3c4ccc(OS(=O)(=O)O)cc4CC[C@H]3[C@@H]1CC[C@@H]2NS(=O)(=O)c1ccc(-c2ccccc2)cc1 | 38.6
3. CCOC(=O)c1cc(C(=O)c2ccc(F)cc2F)n2ccccc12 | 73
4. COc1ccc2nc3cc(Cl)ccc3c(N)c2c1 | -39.1
5. Cc1c(Cl)cccc1NC(=O)CN1CCOCC1 | 86.1
6. COc1cc(NC(=O)C2=C(N3CCOCC3)/C(=C/c3ccc(Cl)cc3)CC2)cc(OC)c1OC | 35.1

Below is a list of compounds. For each, state its recorded growth.
1. COc1cc(CNC(=O)C2CSC3(C)c4ccccc4C(=O)N23)cc(OC)c1OC (configuration not stated)
2. O=C(Nc1ccc2c(O)cc(S(=O)(=O)O)cc2c1)c1ccc([N+](=O)[O-])cc1

Response line:
1: 77.4; 2: 60.9

----------
- Test system: OVCAR-8 ovarian
- assay.details: NCI-60 one-dose screen, 48 h (100 = growth as untreated, 0 = no growth, -100 = all killed)
- experimental.parameters: 10 µM
- Procedure: Growth inhibition of the OVCAR-8 human tumor cell line is measured as a screen for anti-cancer activity. Cells are grown in 96 well plates and exposed to the test compound for 48 hours. Compounds are tested at a single concentration, which is 10^-5 M for most compounds. The reported endpoint is percent growth (GI% or GIPRCNT), where numbers from 0 - 100% represent growth inhibition, and numbers from -100% - 0 represent cell death. For example, a value of 40 represents 60% growth inhibition. […]
Compounds without any hit were thinned out: in the full panel of roughly 83,000, 20% have a hit.
Binarize growth at 30%; below is Fulfilled, at or above is Not fulfilled.

Take a look at these entries with their results.
1) COc1ccc(-c2cc(-c3ccc(OC)c(OC)c3)nc(SCCCC(=O)NO)n2)cc1 | Fulfilled
2) COc1cc(C2CC(c3cc(Cl)c(C)cc3O)=NN2c2ccc(S(N)(=O)=O)cc2)cc(OC)c1OC (stereo unspecified) | Not fulfilled
3) Cc1c(Cl)cccc1NC(=O)CN1CCOCC1 | Not fulfilled
4) CC(C)CCN(CCC(C)C)CC(=O)Nc1ccc(S(=O)(=O)c2ccc(NC(=O)CN(CCC(C)C)CCC(C)C)cc2)cc1 | Fulfilled
5) Cc1cc(SCc2ccccc2)nc(N)n1 | Not fulfilled
6) CN1CCc2c(sc3nc4n(-c5ccc(Cl)cc5)c(=O)[nH]n4c(=O)c23)C1 | Not fulfilled

Now take the following compound into account.
Prompt line: Here's an entry: N#Cc1cnn(C(=O)c2nn(-c3ccc(Cl)cc3)cc2O)c1N . Is its growth below 30%?
Response line: Fulfilled

----------
- Test system: RXF 393 renal
- assay.details: NCI-60 one-dose screen, 48 h (100 = growth as untreated, 0 = no growth, -100 = all killed)
- experimental.parameters: 10 µM
This is part of a sample that, as a whole, favours compounds with a hit. Of some 83,000 tested, about 20% had one in any assay.
quantity.measured: growth (%)
Give bare numbers, in %.

Consider the reported growth for these compounds:
1. O=C(CCCCNC(=O)c1nc(-c2ccccc2)n(-c2ccccc2)n1)NO | 84.2
2. N#CC1=C(N)Oc2cc(N)ccc2C1c1cccnc1 (stereo not drawn) | 108
3. NS(=O)(=O)Oc1ccc(NC(=O)C2CCCCCC2)cc1 | 116
4. NC(=O)c1cccc(-n2ccc3cc(NC(=O)Nc4ccc(Cl)c(C(F)(F)F)c4)ccc32)n1 | 2.44
5. COc1ccc(-c2nnc(SCC(=O)Nc3ccc(C(=O)/C=C/c4ccccc4)cc3)n2-c2ccccc2)cc1OC | 72.4
6. O=C(CCCCC(=O)Oc1c(Cl)cc(Cl)cc1[N+](=O)[O-])Oc1c(Cl)cc(Cl)cc1[N+](=O)[O-] | 120
7. COc1ccc2c(c1)CC=C1[C@@H]2CC[C@]2(C)C(=O)/C(=N/O)C[C@@H]12 | 64
8. C/C(=C/CCC(C)[C@@H]1CC[C@]2(C)C3=C(CC[C@@]12C)[C@@]1(C)CCC(=O)C(C)(C)[C@@H]1CC3)C(=O)O (stereo partly drawn) | -90.2
9. COc1cc(-c2nn(-c3cccc(NC(=O)CCN4CCN(c5ccccc5)CC4)c3)cc2-c2ccncc2)ccc1Cl | -0.267
10. CSc1nc(S(C)(=O)=O)nc2[nH]c(=O)[nH]c12 | 110

Below is a list of compounds. For each, state its recorded growth.
1. O=C(CNc1nnc(-c2cccnc2SCc2ccccc2)s1)Nc1nc(Cl)cc(Cl)n1
2. CC[C@@H](C(=O)[C@@H](C)[C@@H](O)[C@H](C)[C@@H]1O[C@@H]([C@@H](CC)C(=O)N(CC)CC)CC[C@@H]1C)C1O[C@]2(C=CC(=O)[C@]3(CC[C@@](C)([C@H]4CC[C@](O)(CC)[C@H](C)O4)O3)O2)[C@H](C)C[C@@H]1C (stereo partly drawn)
3. CC(C)(C)c1ccc(S(=O)(=O)N[C@H]2CC[C@H]3[C@@H]4CCc5cc(O)c([N+](=O)[O-])cc5[C@H]4CC[C@]23C)cc1
4. Cc1cc(CCNC=O)c(C)c2c1sc1ccccc12
5. CCOc1ccccc1/C=N\N=C\c1ccccc1O
6. CC[C@@H](C(=O)[C@H](C)[C@H](O)[C@@H](C)[C@H]1O[C@H]([C@@H](CC)C(=O)O)CC[C@H]1C)C1O[C@]2(C=C[C@@H](O)[C@]3(CC[C@@](C)([C@H]4CC[C@](O)(CC)[C@H](C)O4)O3)O2)[C@H](C)C[C@@H]1C (stereo partly drawn)
7. O=C(O)c1ccc(-n2cc(CNc3ccc(Oc4ccccc4)cc3)c(-c3ccccc3)n2)cc1
8. CC(=O)C1CCC2C3CC=C4CC(SC(=N)N)CCC4(C)C3CCC12C (stereo not drawn)

Response line:
[124, 28.2, 42.5, 80, 121, -8.61, 86.9, 25.6]

----------
- Tested on: HCC-2998 colon
- assay.details: NCI-60 one-dose screen, 48 h (100 = growth as untreated, 0 = no growth, -100 = all killed)
- experimental.parameters: 10 µM
Compounds without any hit were thinned out: in the full panel of roughly 83,000, 20% have a hit.
just bin them by growth: lower segment = under 60%, middle segment = from 60% up to 90%, upper segment = 90% and over

Take a look at these entries with their results.
1) Nc1nc(N)c(N)c(Nc2ccc(CCO)cc2)n1 | upper segment
2) c1ccc(CCCCc2ccc3ccccc3n2)cc1 | upper segment
3) COc1cccc2ccc(CC(O)(c3ccccc3)c3ccccc3)nc12 | upper segment
4) Nc1ccc(CC[C@H]2CCC/C=C/[C@@H]3C[C@H](O)C[C@H]3[C@H](O)/C=C/C(=O)O2)cc1 | lower segment
5) C[C@]12CC[C@@H]3c4ccc(OS(=O)(=O)O)cc4CC[C@H]3[C@@H]1CC[C@@H]2NS(=O)(=O)c1ccc(-c2ccccc2)cc1 | middle segment
6) CNS(=O)(=O)Oc1ccc(-c2sc3cc(OS(=O)(=O)NC)ccc3c2C(=O)c2ccc(OCCN3CCCCC3)cc2)cc1 | upper segment
7) CC(C)(C)c1ccc(S(=O)(=O)Oc2ccc(NC(=O)C3CCCCC3)cc2)cc1 | lower segment
8) COc1ccc(-c2nn(-c3cccc(Cl)c3)cc2C=C(C#N)C#N)cc1 | lower segment

Prompt line: Form: Item = COc1ccc(-c2nn(-c3cccc(Cl)c3)cc2-c2cc(-c3ccccc3)[nH]c(=O)c2C#N)cc1 ; Class = ?
Response line: lower segment

Prompt line: Form: Item = C[C@@H](C[C@H](CCO)c1ccccc1)c1ccc2ccccc2c1 ; Class = ?
Response line: lower segment

Prompt line: Form: Item = CCCC1(CN2c3ccccc3Sc3ccc(Cl)cc32)CCN(CC)C1 (centres undefined) ; Class = ?
Response line: lower segment

Prompt line: Form: Item = O=C(NCCCNS(=O)(=O)c1ccc(Cl)cc1)Nc1ccc(-n2cc(-c3ccncc3)c(-c3ccc(Cl)c(O)c3)n2)cc1 ; Class = ?
Response line: lower segment

Prompt line: Form: Item = C/C=C/CSC(C)(C)C(=O)NC ; Class = ?
Response line: upper segment

Prompt line: Form: Item = COc1ccc(-c2nn(-c3cccc(Cl)c3)cc2-c2c(C#N)c(=O)n3[nH]c(-c4ccccc4)nc3c2C#N)cc1 ; Class = ?
Response line: upper segment

Prompt line: Form: Item = COc1cc(Cc2cc(-c3ccccc3)n[nH]c2=O)cc(OC)c1OC ; Class = ?
Response line: middle segment

Prompt line: Form: Item = COc1cc(-c2nn(-c3cccc(NC(=O)NCCNC(=O)c4cccc(C(F)(F)F)c4)c3)cc2-c2ccncc2)ccc1Cl ; Class = ?
Response line: middle segment
